Target: HIV-1 BaL.01 Env gp160 on pseudovirus (HIV-1 BaL.01)
Assay: cell-based or functional assay
Bridges are numbered along the chain shown (N, C = ends). Where no end group is shown, it is not given here. [ ]: non-standard residue; d: D form.
measurement kind: log10 HIV-1Bal.01 infection inhibition IC50 (log10 of the value in µM)
Short version: log10 scale, HIV-1Bal.01 infection inhibition IC50, µM.

DNIPWK-NH2 (lactam 1-6; not fully specified (residue 4)) [cPT 31]	0.26

Parameters: items (list). Returns: log10 HIV-1Bal.01 infection inhibition IC50 for each item.
1. DNI[4‑(4-((2,2'-bithiophen)-5-yl)-1H-1,2,3-triazol-1-yl)proline]WK-NH2 (lactam 1-6) [cPT 37]
2. DNIPWK-NH2 (lactam 1-6; not fully specified (residue 4); also: Pro4 triazole substituent: isoquinoline moiety) [cPT 30]

1: -0.39; 2: 0.70

I would be grateful if you could provide log10 HIV-1Bal.01 infection inhibition IC50 for each of the following entries.
1. DNIPWK-NH2 (lactam 1-6; not fully specified (residue 4); also: Pro4 triazole substituent: phenyl joined through two spacer atoms) [cPT 16]
2. DNIPWK-NH2 (lactam 1-6; not fully specified (residue 4)) [cPT 32]
3. DNIPWK-NH2 (lactam 1-6; not fully specified (residue 4)) [cPT 33]
4. DNI[triazolo‑Pro][benzothienylalanine]K-NH2 (lactam 1-6; not fully specified) [cPT 14]

0.31
0.86
0.78
-0.77
